target: pooled human IgG (human IgG1, 2, 3 and 4)
measure name: Enzyme Activity Endpoint Assay (purified): scIgG (ng/µL)
Answers are plain numbers, in ng/µL.

Task: # get_value(readout='Enzyme Activity Endpoint Assay (purified): scIgG', item= PRT-457 (protein) MVTSVWTKGVTPPTDFIKGEDVFHAPYKAGQGWYDITKAFDGGDDLLCGAATAGNMLHWWFDQNKDQIEAYLKEHPEKQKINFNGEQMFDVKEAIDTKDDQTNSELFNYFKEKAFPYLSTKHLGVFPDHVLDMFINGYRLSLTNHGPTPVKRQEKDPRGGIFDAVFGRGDQTKLLTSRHDLKNKTLKEISDLIKQELTEGKALALSHTYANVRINHVINLWGADFDSNGNLEAIYVTDSDSNASIGMKKYFVGVNSAGKVAISAKEIEDDNIGAQVLGLFTLSTGQKIWNKTNLEHHHHHH )
Result: 337

Then there is this protein:
Task: # get_value(readout='Enzyme Activity Endpoint Assay (purified): scIgG', item= PRT-429 (protein) MTITSVWTKGVTPPTPEDFRYNNEDVLHAPYVANQGWYDITKTFDGKDNLLCGAATAGNMLHWWFDQNKEEIERYLKKHPEKQKIIFNNQELFDVKAAIDTKDSQTNSKLFNYFRDKAFPNLSARQLGVMPDLVLDMFINGYYLNLGKTQSTDVNRPYQDKDKRGGIFDAVFTRGDQTTLLTARHDLKNKGLNEISDLIKQELTEGKALALSHTYANVRINHVINLWGADFDAEGNLIAIYVTDSDARASIGMKKYFVGVNANGKVAISAKKIEGDNIGAQVLGLFTLSTGQDIWQKLS )
Result: 171
